system: Human Heme Oxygenase-1 (HMOX-1); experiment: ELISA assay to measure human heme oxygenase-1 (HMOX-1) in HepG2 lysate; format: cell-based; conditions: human HMOX1 protein level in HepG2 lysate; * = average of 2 or more EC50 determinations; NA = Not Active; read-out: EC50
Record form. Attribute: EC50. Fill in for each entry.
Your answer should be a plain number; it is taken to be in nM.

Q) Any idea what its EC50 is? The compound is `CN(C)CCn1c(Nc2nc3ccc(OC(F)(F)F)cc3o2)nc2cc(C(=O)O)ccc21`
A) 3600

Q) # lookup: EC50 of `COCCNC(=O)c1ccc2c(c1)nc(Nc1nc3ccc(OC(F)(F)F)cc3o1)n2CC1(O)COC1`
A) 1300

Q) Requested field: EC50. Item: `Cn1c(Nc2nc3ccc(C(F)(F)F)cc3o2)nc2cc(C(=O)NCCN3CCCC3)ccc21`
A) 1300

Q) For `CC(C)c1ccc2nc(Nc3nc4cc(C(=O)NCCO)ccc4n3C)oc2c1` , what is its reported EC50?
A) 1500
